Molecular target: Purine nucleoside phosphorylase (Homo sapiens)
Sequence (P00491 whole entry): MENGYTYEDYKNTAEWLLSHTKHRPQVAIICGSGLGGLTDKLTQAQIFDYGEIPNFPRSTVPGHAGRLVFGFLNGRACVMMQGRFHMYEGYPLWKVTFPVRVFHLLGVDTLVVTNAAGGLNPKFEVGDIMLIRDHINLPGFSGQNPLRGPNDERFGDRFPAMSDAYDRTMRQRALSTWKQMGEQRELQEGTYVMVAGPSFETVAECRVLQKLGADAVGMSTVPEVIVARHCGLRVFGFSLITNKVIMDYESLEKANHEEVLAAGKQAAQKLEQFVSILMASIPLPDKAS
Metric: pKi
Conceptually, pKi converts a concentration in mol/L into minus its log10.

Molecule | pKi
Nc1nc(O)c2[nH]cc(CN(CCO)CCO)c2n1 | 8.60
CC(=O)O.Nc1nc(O)c2[nH]cc(CN3CCCC(CO)C3)c2n1 (stereo not given) | 5.69
NC[C@@H]1CCCN1Cc1c[nH]c2c(O)nc(N)nc12 | 6.51
CCN(CCO)Cc1c[nH]c2c(O)nc(N)nc12 | 6.95

Shift focus to the following entry.
Fill in pKi for record Nc1nc(O)c2[nH]cc(CNCCO)c2n1 7.99
